assay: Solubility in organic and aqueous solvents; type: physicochemical; conditions: water; read-out: solubility in water
Counter-ions that a name gives are not always drawn.
OUTCOME_MEASURE: solubility (mM)
Field: numeric (mM). Do not append units.

stdin: Bench note: what solubility did CC(C)NCC(O)COc1cccc2ccccc12 (stereo not shown) [PRL:Cl, propranolol hydrochloride] show?
stdout: 170
